Each entry below lists one item and its recorded inhibition in vivo at 80 mg/kg value.
- Test system: Mus musculus
- measurement_protocol: Anticonvulsant activity in mouse assessed as inhibition of subcutaneous pentylenetetrazole-induced seizures at 80 mg/kg, po
- Format: functional

{"compound": "CCCC(CCC)C(=O)O [VALPROATE SODIUM]", "tested_system": "Mus musculus", "inhibition in vivo at 80 mg/kg (%)": 80}
{"compound": "CCC(CO)N1C(=O)NC2(CC2(C)C)C1=O (stereo unspecified)", "tested_system": "Mus musculus", "inhibition in vivo at 80 mg/kg (%)": 70}
{"compound": "CCCCN1C(=O)NC2(CC2(C)C)C1=O (stereo unspecified)", "tested_system": "Mus musculus", "inhibition in vivo at 80 mg/kg (%)": 60}
{"compound": "CN1C(=O)NC2(CC2(C)C)C1=O (stereo unspecified)", "tested_system": "Mus musculus", "inhibition in vivo at 80 mg/kg (%)": 60}
{"compound": "CC1(C)CC12NC(=O)N(c1ccc(F)cc1)C2=O (stereo unspecified)", "tested_system": "Mus musculus", "inhibition in vivo at 80 mg/kg (%)": 70}
{"compound": "CC1(C)CC12NC(=O)N(c1ccccc1)C2=O (stereo unspecified)", "tested_system": "Mus musculus", "inhibition in vivo at 80 mg/kg (%)": 60}
